- assayed system: Voltage-gated inwardly rectifying potassium channel KCNH2 (Homo sapiens, UniProt Q12809)
- Sequence (Q12809 whole entry): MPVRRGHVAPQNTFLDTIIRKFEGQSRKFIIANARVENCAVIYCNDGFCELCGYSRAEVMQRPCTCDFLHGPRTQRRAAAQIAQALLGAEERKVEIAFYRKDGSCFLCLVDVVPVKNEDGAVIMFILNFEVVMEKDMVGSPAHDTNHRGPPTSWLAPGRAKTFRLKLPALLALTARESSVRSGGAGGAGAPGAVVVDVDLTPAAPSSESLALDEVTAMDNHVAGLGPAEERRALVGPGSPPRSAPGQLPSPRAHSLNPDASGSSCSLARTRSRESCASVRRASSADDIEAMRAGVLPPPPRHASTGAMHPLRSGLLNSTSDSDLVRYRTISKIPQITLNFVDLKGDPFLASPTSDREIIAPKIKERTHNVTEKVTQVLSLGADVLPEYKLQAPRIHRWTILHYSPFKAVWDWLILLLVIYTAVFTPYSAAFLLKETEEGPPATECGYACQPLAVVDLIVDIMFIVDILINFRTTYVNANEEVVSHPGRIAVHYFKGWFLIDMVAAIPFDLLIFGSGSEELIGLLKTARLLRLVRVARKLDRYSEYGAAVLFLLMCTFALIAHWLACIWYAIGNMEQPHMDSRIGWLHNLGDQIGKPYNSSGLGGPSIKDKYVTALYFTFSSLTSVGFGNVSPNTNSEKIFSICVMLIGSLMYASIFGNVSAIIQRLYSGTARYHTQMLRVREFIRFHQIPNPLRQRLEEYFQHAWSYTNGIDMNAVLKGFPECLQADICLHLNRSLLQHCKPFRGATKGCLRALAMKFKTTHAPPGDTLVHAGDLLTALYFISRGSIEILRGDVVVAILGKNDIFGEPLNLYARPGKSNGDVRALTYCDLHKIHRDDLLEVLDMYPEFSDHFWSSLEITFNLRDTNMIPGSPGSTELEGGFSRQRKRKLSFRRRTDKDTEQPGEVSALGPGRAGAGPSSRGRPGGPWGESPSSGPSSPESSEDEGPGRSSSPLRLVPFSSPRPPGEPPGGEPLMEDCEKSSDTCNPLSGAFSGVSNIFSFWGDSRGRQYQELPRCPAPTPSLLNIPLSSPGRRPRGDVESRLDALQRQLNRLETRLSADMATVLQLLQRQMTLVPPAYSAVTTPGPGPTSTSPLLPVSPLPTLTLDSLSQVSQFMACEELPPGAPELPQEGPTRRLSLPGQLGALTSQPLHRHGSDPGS
- procedure details: Inhibitory concentration against IKr potassium channel
experimental endpoint: pIC50
In simple prose, pIC50 is minus the logarithm base ten of a concentration in moles per litre.

| molecule | pIC50 |
| --- | --- |
| COc1ccc(C2CCN(CC[C@H]3CCOc4ccccc43)CC2)cc1OC [TERIKALANT] | 7.52 |
| CCCCc1oc2ccc(NS(C)(=O)=O)cc2c1C(=O)c1ccc(OCCCN(CCCC)CCCC)cc1 [DRONEDARONE] | 5.52 |
| NCC(O)COc1ccccc1C(=O)CCc1ccccc1 (stereo not drawn) [N-DEPROPYL-PROPAPHENONE] | 4.36 |
| CCC1(c2ccccc2)C(=O)NC(=O)NC1=O [PHENOBARBITAL] | 2.52 |
| COc1ccc(CCNCCCNC(=O)c2ccc([N+](=O)[O-])cc2)cc1OC | 6.38 |

Recorded pIC50 of Nc1ccncc1 [DALFAMPRIDINE] , please.
2.36

So what's the measured pIC50 for this one? CCCCN(CCCC)CC(O)c1cc(Cl)cc2c1-c1ccc(Cl)cc1C2=Cc1ccc(Cl)cc1 (stereo not drawn) [LUMEFANTRINE]
5.09
